tested on: Her-2 in SkBr3 cells; experiment: Her-2 depletion in SkBr3 cells as pharmacodynamic marker of cellular efficacy; assay type: cell-based; conditions: read-out: PD (Her-2 depletion in SkBr3 cells, EC50); SkBr3 cells treated with the inhibitor overnight
Reported EC50 values for the following compounds.

1. CC1C=CCCOC(=O)c2c(O)cc(O)cc2CC(=NOCC(=O)N2CCCCC2)C=CC1 (centres unmarked): ≤ 0.5 µM

Now for a further compound.
Simply: `CC1=CC(=NOCC(=O)N2CCCCC2)Cc2cc(O)cc(O)c2C(=O)OCCC=CCC1` , Her-2 in SkBr3 cells, EC50 = ≤ 0.5 µM
